assay: label from the status in PepcDB records
ENDPOINT NAME: protein production

{"POLYMER SEQUENCE": "MGKENSKVVVLDFWASPYAMRTKVALREKGVEFEVQEEDLWNKSELLLKSNPVHKKVPVLIHNNTPISESLIQVQYIDETWTDAASFLPSDPQSRATARFWADYADKTISFEGGRKIWGNKKGEEQEKGKKEFLESLKVLEAELGDKSYFGGETFGYVDITLVPFYSWFYALEKCGDFSVEAECPKIVAWGKRCVERNSVAATLPESEKVYQQVLKLRQIFGVE", "ENDPOINT VALUE": "failed"}
{"POLYMER SEQUENCE": "MMDSIAGPIQVLSRQFPNAQQGKGAALNHAFQIVLTDAEKGHYSWDQVLVGVVDADGFFSENIVNELTAVFTDTTVCAAQTRIKMKDVTNFMFIAQDVEFFTINNFIQKARRATKTIGLGGNGQFFRLSMITEHLGYQPWGNALLDDYELTIKLMLKELSIAYIDEAFMAQEALRDVKRFIRQRSRWVQGNLDCLAYLPRVIKSKSLTLRQKCGIYYFLAQPFINLVAGMLVFVLTGLQLQHLYRLGFSLSLVISFVLAVSISLVFGIFFTINYYRELKNFQLKVPAKLGLIILPFTISYMYLILFVSVVMAYYRFIKGNSTWIKTERN", "ENDPOINT VALUE": "failed"}

###

assay: label from the status in PepcDB records
ENDPOINT NAME: protein production

{"POLYMER SEQUENCE": "MPSENPIGKTMKSIDEQSLHNARRLFESGDIDRIEVGTTAGLQQIHRYLFGGLYDFAGQIREDNISKGGFRFANAMYLKEALVKIEQMPERTFEEIIAKYVEMNIAHPFLEGNGRSTRIWLDLVLKKNLKKVVNWQNVSKTLYLQAMERSPVNDLELRFLLKDNLTDDVDNREIIFKGIEQSYYYEGYEKG", "ENDPOINT VALUE": "not failed"}
{"POLYMER SEQUENCE": "MGTPGEGLGRCSHALIRGVPESLASGEGAGAGLPALDLAKAQREHGVLGGKLRQRLGLQLLELPPEESLPLGPLLGDTAVIQGDTALITRPWSPARRPEVDGVRKALQDLGLRIVEIGDENATLDGTDVLFTGREFFVGLSKWTNHRGAEIVADTFRDFAVSTVPVSGPSHLRGLCGMGGPRTVVAGSSDAAQKAVRAMAVLTDHPYASLTLPDDAAADCLFLRPGLPGVPPFLLHRGGGDLPNSQEALQKLSDVTLVPVSCSELEKAGAGLSSLCLVLSTRPHS", "ENDPOINT VALUE": "failed"}
{"POLYMER SEQUENCE": "MTAFAAASPRAAVRTGFDGLAISVATRAMMKNLDQNFDAILITGPTASGKSALALRLARERNGVVINADSMQVYDTLRVLTARPSDHEMEGVPHRLYGHVPAGSAYSTGEWLRDISGLLSDLRGEGRFPVIVGGTGLYFKALTGGLSDMPAIPDDLREGLRARLIEEGAAKLHAELVSRDPSMAQMLQPGDGQRIVRALEVLEATGKSIRDFQRASGPMIIDPERAQKFIVLPERPVLHDRINRRFEAMMDSGAVEEVQALLALNLAPDATAMKAIGVAQIADMLTGRMGAAEVIEKSAAATRQYAKRQMTWFRNQMGDDWTRIQPLEHHHHHH", "ENDPOINT VALUE": "failed"}
{"POLYMER SEQUENCE": "MSPAAECRRQLSLDSSEAIGLQPLMQRASNTAGVFVMIDTQLEQQLQGFSALQSLFEADFDVRRLFTAEDALEAGEYGRLTVEALRNDPAAGQLFEERWVLPELNLSSLLQLPEGSFGRVYAEMLVGNGFDPDYVIQIAPVEGDDDLSYFKRLWRTTHDFHHIATGLGTDPRGEVALQAFLMGQLPIPFSVVVVSMGLLRTSVAQPDRIPALVDAISDAFRRGRHSPQLLLAQRWDHFWALPVAEVRQQLQIADLEHHHHHH", "ENDPOINT VALUE": "failed"}

**Query** Note protein production for the sequence shown: `MKKDLISVVMSAYNSEKFISDSISSILDQTYENWELIIINDASSDNTLKIVNQFSEKDPRIKVIDNENNLGLTISLNIGINNSKGEFIARLDSDDFAEPSRLEKELDHLHAYPEAGLVGSGAHLINSSGNKIGSMNVMSQPYFVNRFLINLNPFIHSSIMVRKKALDNVGSYREKFRYSQDYDLILRLSDKYKLSNIALPLIRWRVSDSSVTMQHHTLQRIYADIAREFAIERRNSGHDSYESTEFDTLIHEMRIRNQGRYLCDHGVYDLLFNKKYKEGCSELIKGISKGGFPYNSFYRGITQVISKVNIQLEHHHHHH`
**Result** failed

**Query** Tell me protein production reported for `MTDAHTVCPKFESAFQLLGKRWTGLIINVLLTGPKRFKQVAAEIPQMSDRVLAERLKELEEMDICLRQVYPETPVRIEYELTEKGKALQEVMLEVQCWADKWVEVPN`
**Result** failed

**Query** Quote protein production reported for `MSINISELLQPITEQSPCGEDYSFSNEFHLIKKARTQDDVLLDQGDWVTELKQADWETVTSTSSNLLKTKTKDIRLLTWLSEGWANLYGFEGIYQGIELSHRLLDQFWNDIHPVVEDDDLDQRIALLQGLINQLPLLIKKTPLINTSPYYHLLNYENFLHHQNIRRKQSDEYEQLDGPSEIELFEQALFNTSKSFQYQNYQMFKHVVSQWQQLKDVLDRLMGVDAPSFAAIDSSLQDIDVNLRKIYKAEAFDTNPVATSSATASSHASETLSTEPMPTSNVNVNQPSFQPQTQNHIQNREQAIRVLQDISDYFQANEPHSPVSYMLQKTIKWSQMPLHEWLAQVIKDEHPLQLVQEALGVQPKNEYE` please.
**Result** failed

**Query** Identify protein production associated with the sequence `MKSLGRHLVAEFYECDREVLDNVQLIEQEMKQAAYESGATIVTSTFHRFLPYGVSGVVVISESHLTIHTWPEYGYAAIDLFTCGEDVDPWKAFEHLKKALKAKRVHVVEHERGRYDEIGIPEDSPHKAAV`
**Result** not failed

**Query** Supply reported protein production belonging to this sequence: `MFFSKLFRKDAASCLEKGEKLLAAGRFAEARLSLEDALERLDAHSPEGATTAAVIREKMVVAGNRLAEMNLQEAEHCLKSGEFAKAEEHLNLTLDLADDVTIRDKAVKSFALLEKQIPHVHHHEKKGGCGGCGGSTSQHSENIELEDDGLNDMDRFELLVRPLPGDLPERYADLGEEFAGGYLAAHGGDQMTAEKVFERLLASGESDILLYELAILSHQGGDGRRCETLLRRALALNDTNPLCNLSLVQLLTENGRFTEAVPLLERMVERDILPDQAGMFLGEIYRVQGESDRAIAQFSQLLSTPLKREAAERLVGLLETTGRSQEAALVAKQYLKGCC`
**Result** failed

**Query** For the sequence `MSATGIKRSNLNTRPVQRDASAKQTAIKGPYGKSPGCTTSCGLRLPRKTEVTAAKLIKHLGCKFAKGLRLVVMRKKKRSPPSKVSSFSGRSQPPIIPINNDSHRSEAIEDCIQFINSSSSFTRSNSTS` , give its reported protein production.
**Result** failed

**Query** Give protein production for the following sequence: `MLKTPYYLIDKRALLQNLEVIRRIRERSGAKVLLALKCFATWSVFDLMREYMDGTTSSSLFEVRLGREKFGGETHAYSVAYAEDDIDDVVACADKIIFNSLSQLERYAPRASAIPRGLRLNPGISVSGYDLANPARPFSRLGETDLDRIAQAMPMIDGFMVHNNCENRDFTRFDALLTELEHRYGHLLGQINWISLGGGIHFTEPGYALDAFCDRLRRFSEQYGVQVYLEPGEAAITNTATLEVTVLDVMRNEKNLAIVDAATEAHMLDLLIYRMSARVQPDQGPHRYVIYGNSCLAGDVFGEFSFESPLQPGSRISIQDAAGYTMVKKNWFNGVRMPAIAIRELDGEIRLVREFGYQDYVDSLS`
**Result** failed

**Query** State, in one line, measured protein production of `MTLSTINPMKKSRIDNIHHTQILFFSDENQIDQEAPYYDALLDLEKDYPEQIDKMKVYDKKEGWEDEIETVPTLMVVDQRHVVVKIEGCVKKKEDIIKPLQHVLSKLEHHHHHH`
**Result** not failed

###

assay: label from the status in PepcDB records
ENDPOINT NAME: protein production

{"POLYMER SEQUENCE": "VKDVRKIQFMPMERHNTELLSLVDNLPDPVFAIDLKGAVDMANMSALSLLGLHKQEVIGTQIGALLPSVRFSRWSEGVNARTRENLVIDGLDYILELMPVY", "ENDPOINT VALUE": "failed"}
{"POLYMER SEQUENCE": "MERAAFGKLVQALRREHRDEKGRVWTQEVLAERTQLPKRTIERIENGSLAHLDADILLRLADALELTIGERREFFFAATGIIEQKSATYKRSPEESLQYLIDMIRNMNVPAFVTDQYVNIIAANMITIRFFNIPMELIETAPLLPHGYNLMRVVFGTEYDFRRVVGTMWDEVARHNMQLFRAISLRVRADGYFVELLDNLMQYREFKRFWERAHLETEDTSAENFWYQYTHPVYGLLSYVSSRSQIPTSMGLLSMHTYIPLSPATTDLFAKLSTVANQDVIRLAPWPRSNG", "ENDPOINT VALUE": "not failed"}
{"POLYMER SEQUENCE": "AWKGEVLANNEAGQVTSIIYNPGDVITIVAAGWASYGPTQKWGPQGDREHPDQGLICHDAFCGALVMKIGNSGTIPVNTGLFRWVAPNNVQGAITLIYNDVPGTYGNNSGSFSVNIGKDQS", "ENDPOINT VALUE": "not failed"}
{"POLYMER SEQUENCE": "MGITRKYIANLKDLPTRVQDENDCTSEPFTKPRLCCKMVNKIRNTLVSTETFLQKENITLDTYKRIIRDLVIHLDRVTTKVFVNSLPYNVMDDLGLQECEAFVLKWSEELRKLQSEYRNHLDQISNIERLRRSLNVCLKTREDQIQKVQKEFQWFINILKSLPKSSVCQDGFARIELLNLYRQWKKGQLISMLPIMDFIMKTLLKEKDSILKRKLQPKSA", "ENDPOINT VALUE": "failed"}

**Query** Respond only with protein production recorded for `MEVTLLGTGDTTGTPTVQCDCDTCERARDPDEELRANVRERGIDPTGGVERSRFSVAVENDTTGESLLVDLSPDFRHQFLRESVPLPDAAIITHIHFDHLDGLGNAYRLFDELPVHAADETDPVTDESVAEAVRSRYDYLDTVSVHAQTPLEPFTVAGFEVTLVPVTHPPLLCYGLRIEEPQTGAVLSISGDTCYDVPDRSKSVLTGADLALVEGIVHPEACEYHPKGGTHHNEDGVPRTFGTKHMTLPGARDFAADIEADDYRIVHTAHYVPADRAFADDIGLDGEQFML`
**Result** failed

**Query** // fetch protein production given entry `MCDTFVEFIQLEETVKHDENGKPVKRLRRRETLVHSENVAGRSFWNEHSSLHKDLGHFAKDIGKIEPDYVKSFQFESRLLPLTWVVVRIDGCHFHRFSEVHEFEKPNDEQALKLMNSCAVAVLEEFQDIAFAYGVSDEFSFVLKNKSELYKRQSSKIISAVVSFFTSTYMMRWGDFFPHKKLKYPPSFDGRAVCYPTSDILLDYLAWRQVDCHINNQYNTCFWMLVKSGKSKIQAQDYLKGTQTREKNELLSQQFGIEYNSLPVIFRMGSSVFRLKVLLLLSYSKILLVFHSRFLLL`
**Result** failed

**Query** Indicate the recorded protein production value for this sequence: `MPDGWRKMGVLVFYDLPVVSPEQRLAAVRFHKFLLADGFERMHYSIYARYCGSMERAATYERRVEQALPAVGHVNLLKLTDRQMVGMRKWIRGNYRAPENAEFVPPAQYQLFLEHHHHHH`
**Result** failed
